Documented Hemolysis (%) 250 µM across a set of molecules
Tested on: erythrocyte suspensions of horse blood;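 further: Read-out is hemoglobin release into the supernatant, with a buffer-only blank subtracted as the 0% baseline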
Conditions: 250 µM peptide; horse erythrocytes 5% vol/vol, TRIS buffer pH 7.2, 1 h at 37°C, absorbance 540 nm; relative to melittin 100 μM; ± confidence interval (α = 0.05)
Where a SMILES comes first, the peptide text is derived from it. Side-chain parts run from the residue outwards. [ ]: non-standard residue; d: D form. The star is where a group is joined. Palmitoyl = CCCCCCCCCCCCCCCC(=O)*; Octanoyl = CCCCCCCC(=O)*; Hexanoyl = CCCCCC(=O)*; Butyryl = CCCC(=O)*
Write the value in % as a bare number.

molecule	measurement_target	value
CCCCCCCC(=O)NCCCC[C@@H]1NC(=O)[C@H](CCCCN)NC(=O)[C@H](CC(C)C)NC(=O)[C@H](CCCCN)NC(=O)[C@H](CCCCN)NC(=O)[C@H](CCC(N)=O)NC(=O)[C@H](CC(C)C)NC(=O)[C@H](CCCCN)NC(=O)[C@H](CCCCN)NC(=O)[C@H](Cc2ccccc2)NC1=O [BPC498, c(KKLKK(CO-C7H15)FKKLQ)] (cyclo(FKKLQKKLKK(Octanoyl)))	erythrocyte suspensions of horse blood	100
CCCC(=O)NCCCC[C@@H]1NC(=O)[C@H](CCCCN)NC(=O)[C@H](CCC(N)=O)NC(=O)[C@H](CC(C)C)NC(=O)[C@H](CCCCN)NC(=O)[C@H](CCCCN)NC(=O)[C@@H](Cc2ccccc2)NC(=O)[C@H](CCCCN)NC(=O)[C@H](CCCCN)NC(=O)[C@H](CC(C)C)NC1=O [BPC714, c(KK(CO-C3H7)LKKfKKLQ)] (cyclo(KK(Butyryl)LKK[dF]KKLQ))	erythrocyte suspensions of horse blood	3
CCCC(=O)NCCCC[C@@H]1NC(=O)[C@H](CCC(N)=O)NC(=O)[C@H](CC(C)C)NC(=O)[C@H](CCCCN)NC(=O)[C@H](CCCCN)NC(=O)[C@@H](Cc2ccccc2)NC(=O)[C@H](CCCCN)NC(=O)[C@H](CCCCN)NC(=O)[C@H](CC(C)C)NC(=O)[C@H](CCCCN)NC1=O [BPC716, c(K(CO-C3H7)KLKKfKKLQ)] (cyclo(K(Butyryl)KLKK[dF]KKLQ))	erythrocyte suspensions of horse blood	4
CCCCCC(=O)NCCCC[C@@H]1NC(=O)[C@H](CCCCN)NC(=O)[C@H](CCC(N)=O)NC(=O)[C@H](CC(C)C)NC(=O)[C@H](CCCCN)NC(=O)[C@H](CCCCN)NC(=O)[C@H](Cc2c[nH]cn2)NC(=O)[C@H](CCCCN)NC(=O)[C@H](CCCCN)NC(=O)[C@H](CC(C)C)NC1=O [BPC682] (cyclo(HKKLQKK(Hexanoyl)LKK))	erythrocyte suspensions of horse blood	27
CCCCCC(=O)NCCCC[C@@H]1NC(=O)[C@H](CCCCN)NC(=O)[C@H](CC(C)C)NC(=O)[C@H](CCCCN)NC(=O)[C@H](CCCCN)NC(=O)[C@H](CCC(N)=O)NC(=O)[C@H](CC(C)C)NC(=O)[C@H](CCCCN)NC(=O)[C@H](CCCCN)NC(=O)[C@H](Cc2c[nH]cn2)NC1=O [BPC636, c(KKLKK(CO-nC5H11)HKKLQ)] (cyclo(HKKLQKKLKK(Hexanoyl)))	erythrocyte suspensions of horse blood	16
CCCC(=O)NCCCC[C@@H]1NC(=O)[C@H](CCCCN)NC(=O)[C@H](CC(C)C)NC(=O)[C@H](CCCCN)NC(=O)[C@H](CCCCN)NC(=O)[C@H](CCC(N)=O)NC(=O)[C@H](CC(C)C)NC(=O)[C@H](CCCCN)NC(=O)[C@H](CCCCN)NC(=O)[C@@H](Cc2ccccc2)NC1=O [BPC712, c(KKLKK(CO-C3H7)fKKLQ)] (cyclo(KKLKK(Butyryl)[dF]KKLQ))	erythrocyte suspensions of horse blood	38
CCCCCCCCCCCCCCCC(=O)NCCCC[C@@H]1NC(=O)[C@H](CCCCN)NC(=O)[C@H](CC(C)C)NC(=O)[C@H](CCCCN)NC(=O)[C@H](CCCCN)NC(=O)[C@H](CCC(N)=O)NC(=O)[C@H](CC(C)C)NC(=O)[C@H](CCCCN)NC(=O)[C@H](CCCCN)NC(=O)[C@H](Cc2ccccc2)NC1=O [BPC502, c(KKLKK(CO-C15H31)FKKLQ)] (cyclo(FKKLQKKLKK(Palmitoyl)))	erythrocyte suspensions of horse blood	99
CCCCCC(=O)NCCCC[C@H]1NC(=O)[C@H](CCCCN)NC(=O)[C@H](CCC(N)=O)NC(=O)[C@H](CC(C)C)NC(=O)[C@H](CCCCN)NC(=O)[C@H](CCCCN)NC(=O)[C@H](Cc2ccccc2)NC(=O)[C@H](CCCCN)NC(=O)[C@H](CCCCN)NC(=O)[C@H](CC(C)C)NC1=O [BPC678] (cyclo(FKKLQK[dK](Hexanoyl)LKK))	erythrocyte suspensions of horse blood	73
CCCCCC(=O)NCCCC[C@@H]1NC(=O)[C@H](CCCCN)NC(=O)[C@H](CCC(N)=O)NC(=O)[C@H](CC(C)C)NC(=O)[C@H](CCCCN)NC(=O)[C@H](CCCCN)NC(=O)[C@@H](Cc2ccccc2)NC(=O)[C@H](CCCCN)NC(=O)[C@H](CCCCN)NC(=O)[C@H](CC(C)C)NC1=O [BPC680, c(KK(CO-nC5H11)LKKfKKLQ)] (cyclo(KK(Hexanoyl)LKK[dF]KKLQ))	erythrocyte suspensions of horse blood	81
CCCCCC(=O)N[C@@H](CCCCN)C(=O)N[C@@H](CC(C)C)C(=O)NCCCC[C@@H]1NC(=O)[C@H](CCCCN)NC(=O)[C@H](CC(C)C)NC(=O)[C@H](CCCCN)NC(=O)[C@H](CCCCN)NC(=O)[C@H](CCC(N)=O)NC(=O)[C@H](CC(C)C)NC(=O)[C@H](CCCCN)NC(=O)[C@H](CCCCN)NC(=O)[C@@H](Cc2ccccc2)NC1=O [BPC674, c(KKLKK(LK-CO-nC5H11)fKKLQ)] (cyclo(KKLKK([Leu-Lys-Hexanoyl])[dF]KKLQ))	erythrocyte suspensions of horse blood	56

Item CCCCCC(=O)NCCCC[C@@H]1NC(=O)[C@H](CCC(N)=O)NC(=O)[C@H](CC(C)C)NC(=O)[C@H](CCCCN)NC(=O)[C@H](CCCCN)NC(=O)[C@H](Cc2c[nH]cn2)NC(=O)[C@H](CCCCN)NC(=O)[C@H](CCCCN)NC(=O)[C@H](CC(C)C)NC(=O)[C@H](CCCCN)NC1=O [BPC688] (cyclo(HKKLQK(Hexanoyl)KLKK)) was tested on erythrocyte suspensions of horse blood; the reported Hemolysis (%) 250 µM is 1
